- System: UACC-62
- protocolNotes: NCI tumour cell line growth inhibition, 48 h
Active and inactive are the calls of the source. No stated cut-off is given here; in the data, active = GI50 up to about 1.1 µM and inactive = higher.
observedProperty: GI50

Take a look at these entries with their results.
>>> df
                                   compound  observedproperty             measured
0       COc1ccccc1/C=N/C12CC3CC(CC(C3)C1)C2              GI50  > 100 µM (inactive)
1  CCCCCc1nnc(NS(=O)(=O)c2ccc(NC(=O)OCC(C)C)cc2)s1              GI50   29.5 µM (inactive)
2  COc1ccccc1C(C1=C(O)COC1=O)c1cc2c(cc1OC(C)=O)OCO2 (stereo unspecified)              GI50  > 100 µM (inactive)
3            CCOC(=O)C/C(N)=C(\C#N)C(=O)OCC              GI50  > 100 µM (inactive)
4  COc1ccc(/N=N/C(=O)NC(CC(C)C)C(=O)NC(CC(C)C)C(=O)O)cc1 (stereo unspecified)              GI50   16.6 µM (inactive)

For the next question, use this compound.
Provide measured GI50 value, entry: `CCOC(=O)CSc1nc(N)c2c(-c3ccccc3)c3c(nc2n1)CCCC3`
> 100 µM (inactive)
